For each entry below, report its MSD value.
test system: Mus musculus; experiment: Toxicity against mouse P388 cells xenografted CDF1 mouse assessed as survival time at 25 mg/kg, iv; format: organism-based; parameters: dose 25 mg/kg, route intravenous; conditions: in vivo
Answers are plain numbers, in days.

The cases that follow already have their MSD on record.
compound=COc1cc2c(ccc3c4cc(OC)c(OC)cc4c[n+](C)c23)cc1O.[Cl-] result_value=9.5
compound="COc1cc2c[n+](C)c3c4cc5c(cc4ccc3c2cc1OC)OCO5.[Cl-] [NITIDINE CHLORIDE]" result_value=10
compound="C[n+]1cc2c3c(ccc2c2ccc4cc5c(cc4c21)OCO5)OCO3.[Cl-] [SANGUINARIUM CHLORIDE]" result_value=2.3

Continue with the next compound.
Lab note: need MSD for COc1ccc2c(c[n+](C)c3c4cc5c(cc4ccc23)OCO5)c1OC.[Cl-] [CHELERYTHRINE CHLORIDE] on Mus musculus, anyone have it?
1.1

Reference source for all entries: ChEMBL document CHEMBL1144051
